target: human GLP-1 receptor (human, UniProt P43220 24-463); assay: cell-based or functional assay
Numbered stars: 1 amine (or outer) side, 2 acyl side, 3 side chain; on linkers, the order of the positions; unused ones are H or OH. Square brackets hold non-standard residues; d marks the D form. Side chains are listed from the residue outwards. * marks the point of attachment. Chem. 22 = C20 diacid gamma-Glu, O=C(O)CCCCCCCCCCCCCCCCCCC(=O)N[C@@H](CCC(=O)*)C(=O)O; C20 diacid = O=C(O)CCCCCCCCCCCCCCCCCCC(=O)*; C18 diacid = O=C(O)CCCCCCCCCCCCCCCCC(=O)*; C16 diacid = O=C(O)CCCCCCCCCCCCCCC(=O)*; γGlu = O=C(O)[C@H](CCC(=O)[*:2])N[*:1]; Chem. 28 = not defined here; Chem. 29 = not defined here; AEEA = NCCOCCOCC(=O)O; Aib = CC(C)(N)C(=O)O
Task for the reader: assign each of the following binders its reported hGLP-1R Potency, no HSA, EC50 [pM].
A number alone suffices; assume pM.

Prompt: Need hGLP-1R Potency, no HSA, EC50 [pM], item Compound 64 (peptide) peptide: H[Aib]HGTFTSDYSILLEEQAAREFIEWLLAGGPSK([AEEA-AEEA-γGlu-C18 diacid])GEASQLSTAALGRLSAELHQLATLPRTETGSGSP-NH2
Response: 3.71

Prompt: For Compound 46 (reading uncertain) peptide: H[Aib]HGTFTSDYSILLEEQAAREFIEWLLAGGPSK(Chem. 28)GAGQAPGQAPGASHLSTAALGRLSAELHRLATLPRTETGSGSP-NH2 then?
Response: 4.59

Prompt: For Compound 85 (peptide) peptide: H[Aib]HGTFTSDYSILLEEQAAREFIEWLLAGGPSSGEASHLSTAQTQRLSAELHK([AEEA-AEEA-γGlu-C18 diacid])LATLPRTETGSGAP-NH2 then?
Response: 3.52

Prompt: For Compound 77 (peptide) peptide: Y[Aib]EGTFTSDYSILLEEQAAREFIEWLLAGGPSSGAGQAPGQAPLASHLSTAQTQRLSAELHK([AEEA-AEEA-γGlu-C20 diacid])LATLPRTETGSGSP-NH2 then?
Response: 19.7

Prompt: For Compound 17 (peptide) peptide: H[Aib]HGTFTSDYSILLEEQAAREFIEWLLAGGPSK([AEEA-AEEA-γGlu-C16 diacid])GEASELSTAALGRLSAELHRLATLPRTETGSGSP-NH2 then?
Response: 2.72

Prompt: For Compound 22 (reading uncertain) peptide: H[Aib]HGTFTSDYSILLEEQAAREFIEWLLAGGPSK(Chem. 28)GAPPPSLAQTLAQTLASELSTAALGRLSAELHELATLPRTETGSGSP-NH2 then?
Response: 11.3

Prompt: For Compound 73 (peptide) peptide: H[Aib]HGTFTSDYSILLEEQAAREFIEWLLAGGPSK([AEEA-AEEA-γGlu-C18 diacid])GEASQLSTAALGRLSAELHRLATLPRTETGSGSP-NH2 then?
Response: 4.55

Prompt: For Compound 42 (peptide) peptide: Y[Aib]EGTFTSDYSILLEEQAAREFIEWLLAGGPSSK(Chem. 22)APPPSGGGEASELSTAALGRLSAELHRLATLPRTETGSGSP-NH2 then?
Response: 61.3

Prompt: For Compound 92 (peptide) peptide: H[Aib]HGTFTSDYSILLEEQAAREFIEWLLAGGPSSGAGQAPGQAPGASHLSTAQTQRLSAELHRLATLPK([AEEA-AEEA-γGlu-C18 diacid])TETGSGSP-NH2 then?
Response: 2.55

Prompt: For Compound 10 (reading uncertain) peptide: Y[Aib]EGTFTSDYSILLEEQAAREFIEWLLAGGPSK(Chem. 29)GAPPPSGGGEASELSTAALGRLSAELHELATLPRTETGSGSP-NH2 then?
Response: 13.8

Prompt: For Compound 21 (reading uncertain) peptide: Y[Aib]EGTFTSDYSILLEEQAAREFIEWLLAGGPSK(Chem. 28)GALAQTLAQTLASELSTAALGRLSAELHELATLPRTETGSGSP-NH2 then?
Response: 41.2

Prompt: For Compound 86 (peptide) peptide: H[Aib]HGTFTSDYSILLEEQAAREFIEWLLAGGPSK([AEEA-AEEA-γGlu-C18 diacid])GAPPPSGGGASELSTAALGRLSAELHRLATLPRTETGSGSP-NH2 then?
Response: 6.69

Prompt: For Compound 87 (peptide) peptide: H[Aib]HGTFTSDYSILLEEQAAREFIEWLLAGGPSSGEASHLSTAALGRLSAK([AEEA-AEEA-γGlu-C18 diacid])LHRLATLPRTETGSGSP-NH2 then?
Response: 8.49

Prompt: For Compound 60 (peptide) peptide: Y[Aib]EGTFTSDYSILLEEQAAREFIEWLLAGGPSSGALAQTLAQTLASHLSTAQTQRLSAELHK([AEEA-AEEA-γGlu-C20 diacid])LATLPRTETGSGSP-NH2 then?
Response: 94.4

Prompt: For Compound 81 (peptide) peptide: Y[Aib]EGTFTSDYSILLEEQAAREFIEWLLAGGPSSGEASHLSTAQTQRLSAELHRLATLPK([AEEA-AEEA-γGlu-C18 diacid])TETGSGSP-NH2 then?
Response: 16

Prompt: For Compound 112 (peptide) peptide: H[Aib]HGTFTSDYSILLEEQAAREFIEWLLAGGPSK([γGlu-C18 diacid])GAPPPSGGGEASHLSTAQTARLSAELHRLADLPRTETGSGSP-NH2 then?
Response: 4.37
